Source listed as PubChem BioAssay (NCATS).

- test method notes: NFAT Signaling Pathway (AID 444);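 also: carbachol stimulus at about its EC50 of 1 µM final; % is scaled to controls: 0 for no effect and ±100 for the full control effect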
- condition notes: Jurkat NFAT-bla M1, carbachol, beta-lactamase ratio, 5 h; at 7.69 µM (top of the series) unless noted
Inconclusive results are not listed.
quantity measured: activity change, negative = inhibition (%)
One number for each entry, in %.

Before answering, review these 5 worked examples.
[
  {
    "given smiles": "COc1ccc(Oc2ncc3nc(-c4ccc(F)cc4)c(=O)n(C)c3n2)cc1",
    "display unit": "%",
    "activity change, negative = inhibition": -22.3
  },
  {
    "given smiles": "COc1ccc(CNc2ccnc(-c3ccoc3)n2)c(OC)c1",
    "display unit": "%",
    "activity change, negative = inhibition": 8.22
  },
  {
    "given smiles": "O=C(c1cccc(F)c1)N1CCC2(CC1)CN(c1ccccc1)C2",
    "display unit": "%",
    "activity change, negative = inhibition": 6.14
  },
  {
    "given smiles": "CC(=O)NCCNc1ncnc2ccc(-c3ccc4c(c3)OCO4)cc12",
    "display unit": "%",
    "activity change, negative = inhibition": 12.4
  },
  {
    "given smiles": "CC(=O)NCCNc1ccnc(-c2ccccc2C)n1",
    "display unit": "%",
    "activity change, negative = inhibition": 6.08
  }
]

I would be grateful if you could provide activity change, negative = inhibition for each of the following entries.
1. COc1ccccc1CNc1cc(-c2ccccc2OC)ncn1
2. CN1CCN(c2ncncc2-c2cccnc2)CC1
3. CNc1ncncc1-c1ccccc1C
4. CN(Cc1ccco1)c1cc(-c2cccc(NS(C)(=O)=O)c2)ncn1
5. N#Cc1ccccc1-c1ccc2ncnc(NCc3cccs3)c2c1
6. COc1ccc2[nH]cc(CCNc3ccnc(-c4ccoc4)n3)c2c1

-- reply
1: -2.18; 2: -6.42; 3: 9.64; 4: -5.51; 5: 20.9; 6: -2.92

Can you give me activity change, negative = inhibition for all of these, one by one?
1. CN(Cc1ccco1)c1cc(-c2cccc(C#N)c2)ncn1
2. COCC(=O)N1CCC2(CC1)CN(c1ccccc1)C2
3. Cc1cnc(CNc2ncncc2-c2ccccc2Cl)cn1
4. CS(=O)(=O)N1CCC[C@@]2(CCN(c3ncccn3)C2)C1
5. Cc1ccccc1-c1nc(NCc2cccnc2)c2ccccc2n1

-- reply
11.4
2.5
13.7
16.2
-1.21

Give activity change, negative = inhibition for each of the items listed below.
1. Cc1cnc(CNc2ncncc2-c2ccccc2C)cn1
2. Cc1nc2cnc(N3CCNCC3)nc2n(C2CC2)c1=O
3. c1cncc(-c2ccc3ncnc(N4CCNCC4)c3c2)c1
4. Cc1noc(C)c1-c1ccc2ncnc(N3CCC(C(=O)O)CC3)c2c1
5. COCC(=O)N1CCC2(CC1)CCN(c1ccc(-c3ccccc3)cc1)CC2
6. Cc1cnc(CNc2cc(-c3cccc(C#N)c3)ncn2)cn1

-- reply
1: -3.77; 2: 3.04; 3: 26.4; 4: -4.03; 5: 2.65; 6: 25.8

* * *

Can you tell me activity change, negative = inhibition for the items I'm about to list?
- test method notes: AP1 Signaling Pathway (AID 357);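 also: ME-180 reporter cells stimulated with EGF at its EC50 level; % is scaled to controls: 0 for no effect and ±100 for the full control effect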
- condition notes: ME-180 AP-1-bla reporter, EGF-induced, beta-lactamase ratio, 5 h; at 7.69 µM (top of the series) unless noted
Results filed as inconclusive are left out. Activity calls are given as the source filed them. Calls come from the whole dose curve; as a rule, active = well fitted curve in either direction with a large enough effect (not every such curve was filed as active); inconclusive = small, poorly fitted or top-dose-only effect, or another doubt; inactive = flat fitted curve, though single readings scatter.

Use these answered entries as a reference point.
[
  {
    "given smiles": "CC(C)NC(=O)N1CC2(CCN(C(=O)c3cc(C(F)(F)F)cc(C(F)(F)F)c3)CC2)C1",
    "activity change, negative = inhibition": "-16.3% (inactive)"
  },
  {
    "given smiles": "COCCn1c(=O)c(C)nc2cncnc21",
    "activity change, negative = inhibition": "-8.48% (inactive)"
  },
  {
    "given smiles": "CC(=O)NCCNc1nc(-c2ccc(N(C)C)cc2)nc2ccccc12",
    "activity change, negative = inhibition": "7.41% (inactive)"
  },
  {
    "given smiles": "O=C(Nc1cccc(F)c1)N1CCC2(CC1)CCN(C(=O)c1cc(C(F)(F)F)cc(C(F)(F)F)c1)CC2",
    "activity change, negative = inhibition": "-6.27% (inactive)"
  }
]

For the 7 compounds below, give their activity change, negative = inhibition values.
1. COc1ccc(-c2nc3cnc(N4CCN(C)CC4)nc3n(CCC#N)c2=O)cc1
2. O=C(c1ccncc1)N1CCC2(CCCN(c3ncccn3)C2)CC1
3. CN(C)C(=O)c1ccc(-c2nccc(-n3ccnc3)n2)cc1
4. CCNc1ncc2nc(-c3cc(F)cc(F)c3)c(=O)n(CCC#N)c2n1
5. O=c1c(-c2cccs2)nc2cnc(N3CCOCC3)nc2n1CCc1ccccc1
6. c1csc(CNc2ncncc2-c2ccoc2)c1
7. Cc1noc(C)c1-c1nccc(N(C)Cc2ccco2)n1

-- reply
1: 23.4% (inactive); 2: -5.83% (inactive); 3: 4.46% (inactive); 4: 28.7% (inactive); 5: 13.2% (inactive); 6: -12.1% (inactive); 7: 6.47% (inactive)

Report activity change, negative = inhibition for each item below.
1. O=C(O)/C=C\c1ccc(Cn2ccnc2)cc1
2. COC(=O)N1CCC[C@@]2(CCN(C(=O)NC(C)C)C2)C1
3. COc1ccccc1CN1CC[C@@]2(CCCN(C(=O)c3ccncc3)C2)C1
4. O=C(c1cccc(F)c1)N1CCC[C@@]2(CCN(c3cccc(-c4ccccc4)c3)C2)C1
5. Cc1nc2cnc(Oc3cccc(Cl)c3)nc2n(C2CC2)c1=O
6. O=C(Nc1cccc(F)c1)N1CCC2(CC1)CCN(C(=O)c1ccco1)CC2

-- reply
1. -4.02% [at 17.2 µM] (inactive)
2. -4.17% (inactive)
3. -11.5% (inactive)
4. 4.68% (inactive)
5. -22.3% (inactive)
6. -3.88% (inactive)

Below are some compounds; for each one, tell me its activity change, negative = inhibition.
1. Cn1cccc1C(=O)N1CCC2(CCCN(C(=O)Nc3cccc(C#N)c3)C2)CC1
2. COc1cccc(Cn2c(=O)c(-c3cccs3)nc3cnc(N4CCOCC4)nc32)c1
3. CCNc1ncc2nc(-c3ccc(F)cc3)c(=O)n(-c3ccc(OC)cc3)c2n1

-- reply
1. -6.91% (inactive)
2. 21.6% (inactive)
3. -1.24% (inactive)

Hey, quick one: what's activity change, negative = inhibition for each of these?
1. COc1ccc(NC(=O)N2CC3(CCN(S(=O)(=O)c4ccccc4)CC3)C2)cc1
2. COc1ccc(C(=O)N2CCC3(CCCN(c4ccncc4)C3)CC2)cc1

-- reply
-1.69% (inactive)
7.18% (inactive)

* * *

- test method notes: AP1 Signaling Pathway (AID 357);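 also: ME-180 reporter cells stimulated with EGF at its EC50 level; % is scaled to controls: 0 for no effect and ±100 for the full control effect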
- condition notes: ME-180 (cervical carcinoma) AP-1-bla reporter, EGF-induced, beta-lactamase ratio, 5 h; at 7.69 µM (top of the series) unless noted
Results filed as inconclusive are left out.
quantity measured: activity change, negative = inhibition (%)
Give bare numbers, in %.

A selection of reference data follows.
[
  {
    "given smiles": "CNc1nc(-c2cccnc2)nc2ccccc12",
    "activity change, negative = inhibition [%]": 14.7
  },
  {
    "given smiles": "CCNc1ncc2nc(-c3cccs3)c(=O)n(-c3ccc(OC)cc3)c2n1",
    "activity change, negative = inhibition [%]": -0.164
  },
  {
    "given smiles": "O=C(Oc1ccccc1)N1CCC2(CCCN(c3ccc(-c4ccccc4)cc3)C2)CC1",
    "activity change, negative = inhibition [%]": 27
  },
  {
    "given smiles": "N#Cc1cccc(-c2cc(NCc3cccnc3)ncn2)c1",
    "activity change, negative = inhibition [%]": 11.5
  },
  {
    "given smiles": "COc1ccc2[nH]cc(CCNc3ccnc(-c4ccccc4C(F)(F)F)n3)c2c1",
    "activity change, negative = inhibition [%]": -10.2
  },
  {
    "given smiles": "N#Cc1ccccc1-c1ccc2ncnc(NC3CC3)c2c1",
    "activity change, negative = inhibition [%]": -12.1
  },
  {
    "given smiles": "O=S(=O)(c1ccccc1)N1CCC2(CCN(Cc3nccs3)CC2)CC1",
    "activity change, negative = inhibition [%]": 19.1
  },
  {
    "given smiles": "COc1ccc(-n2c(=O)cnc3cnc(Oc4cccc(Cl)c4)nc32)cc1",
    "activity change, negative = inhibition [%]": -9.58
  }
]

Answer for every listed entry: what is its activity change, negative = inhibition? The entries follow.
1. c1ccc(C(c2ccccc2)N2CCCC3(CCNCC3)C2)cc1
2. CNc1nc(-c2cccc(NS(C)(=O)=O)c2)nc2ccccc12

-- reply
-3.1
-8.82

-- ask May I ask what activity change, negative = inhibition has been recorded for Cc1ccccc1-c1nc(NCCN2CCOCC2)c2ccccc2n1 ?
-- reply -10.8

* * *

- tested system: Cytochrome P450 1A2 (Homo sapiens) (UniProt P05177)
- Sequence (P05177 whole entry, looked up): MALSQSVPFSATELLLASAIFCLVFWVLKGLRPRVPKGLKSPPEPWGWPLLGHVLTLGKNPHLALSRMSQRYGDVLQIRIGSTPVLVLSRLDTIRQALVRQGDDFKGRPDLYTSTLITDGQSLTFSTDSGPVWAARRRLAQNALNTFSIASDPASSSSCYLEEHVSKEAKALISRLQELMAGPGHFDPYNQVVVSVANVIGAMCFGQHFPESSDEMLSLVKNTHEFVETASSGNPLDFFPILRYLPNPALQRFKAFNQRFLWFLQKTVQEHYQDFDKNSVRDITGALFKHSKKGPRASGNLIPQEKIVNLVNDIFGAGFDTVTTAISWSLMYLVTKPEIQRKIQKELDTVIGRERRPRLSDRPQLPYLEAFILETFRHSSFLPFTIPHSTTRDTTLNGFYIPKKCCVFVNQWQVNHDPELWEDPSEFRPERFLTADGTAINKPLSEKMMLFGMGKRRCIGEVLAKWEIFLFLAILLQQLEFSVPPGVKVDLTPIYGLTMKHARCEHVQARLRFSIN
- test method notes: p450-cyp1a2 (AID 410)
- condition notes: recombinant CYP1A2, luciferin-ME demethylation, luminescence; series mostly up to 57 µM
- Procedure: The P450 gene superfamily is involved in metabolism and the clearance of xenobiotics. This assay used human CYP1A2 to measure the demethylation of luciferin 6' methyl ether (Luciferin-ME; Promega-Glo) to luciferin. The luciferin is then measured by luminescence after the addition of a luciferase detection regeant. Luciferin-ME concentration in the assay was equal to its Km for CYP1A2. NCGC Assay Protocol Summary: […]
Records with an inconclusive call do not appear. Active and inactive are the calls of the source. Calls come from the whole dose curve.
Returns: one label drawn from y (active), n (inactive)

Some solved cases for reference:
[
  {
    "given smiles": "CN(C)c1ccc(-c2nc(NCc3cccnc3)c3ccccc3n2)cc1",
    "label class": "y"
  },
  {
    "given smiles": "CN1CCN(c2ncnc3ccc(-c4cccc(NS(C)(=O)=O)c4)cc23)CC1",
    "label class": "y"
  },
  {
    "given smiles": "Cn1c(=O)c(-c2ccc(Cl)cc2)nc2cnc(Oc3ccccc3)nc21",
    "label class": "y"
  }
]

-- ask Per the assay record, what outcome was assigned to O=c1c(-c2ccc(F)cc2)nc2cnc(N3CCNCC3)nc2n1Cc1cccs1 ?
-- reply y

-- ask Field entry: Cc1cnc(CNc2cc(-c3ccc(C(=O)N(C)C)cc3)ncn2)cn1
-- reply n

-- ask Here is the next molecule: O=C(c1cc(C(F)(F)F)cc(C(F)(F)F)c1)N1CCC2(CCCN(Cc3ccncc3)C2)CC1
-- reply n

-- ask Next: COCCNc1ncnc2ccc(-c3ccccc3C(F)(F)F)cc12
-- reply y

-- ask Moving on to COc1cccc(-c2nccc(NCc3cccs3)n2)c1
-- reply y

-- ask Please give the result for Cn1c(=O)c(-c2ccc(F)c(F)c2)nc2cncnc21 too.
-- reply y

-- ask Also Cc1cnc(CNc2ncncc2-c2ccccc2C)cn1 ?
-- reply y

-- ask Try this molecule next: CN(C)c1ncc2nc(-c3cccs3)c(=O)n(-c3ccccc3)c2n1
-- reply y
